STUDY_TARGET: T1, HLA-A2 molecules on T2A2 cells (human)
T1 construct: whole, on cells; also called class I molecules
ASSAY_METHOD_TEXT: flow cytometry, upregulation of HLA-A2 on T2A2 cells, peptide 25 µg/mL
MEASUREMENT_KIND: T2A2 Binding (MFI)

(I) STAPPAHGV (Synthetic 9-mer; also called pVNTR2; VNTR-2 (native)) [VNTR-2]
(II) YLAPPAHGV (also called pVNTR3; pVNTR-3) [VNTR-3 (agonist)]
Just curious, which one has the larger T2A2 Binding (MFI) reading, I or II ? Bench note: the answer is the label of the chosen record.
II

(a) APDTRPAPG (Synthetic 9-mer; also called pVNTR4; VNTR-4 (native)) [VNTR-4]
(b) YLDTRPAPV (Synthetic analog with substitutions at positions 1, 2 and 9; also called pVNTR5; pVNTR-5) [VNTR-5 (agonist)]
For the two items a and b , which reports the higher T2A2 Binding (MFI) value? Answer by quoting the chosen item's label.
b
